Tested on: Caco-2 cells
protocolText: MTT antiproliferative assay
Assay type: cell-based, Human
setupConditions: Caco-2 cell line, 72 h incubation, mean ± SE
attributeMeasured: pIC50
Worth noting: pIC50 values are minus log10 of concentrations stated in mol/L.

molecule="CC(C)c1cccc(C(C)C)c1-n1cc[n+](-c2c(C(C)C)cccc2C(C)C)[c]1[Au-][C]#CCOc1c(-c2ccccc2)oc2ccccc2c1=O [2a, [Au(La)(IPr)] (R = H; IPr = C27H38N2)]" value=4.79
molecule="CC(C)c1cccc(C(C)C)c1-n1cc[n+](-c2c(C(C)C)cccc2C(C)C)[c]1[Au-][C]#CCOc1c(-c2ccc(Cl)cc2)oc2ccccc2c1=O [2c, [Au(Lc)(IPr)] (R = Cl; IPr = C27H38N2)]" value=4.34
molecule="COc1ccc(-c2oc3ccccc3c(=O)c2OCC#[C][Au-][c]2n(-c3c(C(C)C)cccc3C(C)C)cc[n+]2-c2c(C(C)C)cccc2C(C)C)cc1 [2d, [Au(Ld)(IPr)] (R = OMe; IPr = C27H38N2)]" value=4.32
molecule="COc1ccc(-c2oc3ccccc3c(=O)c2OCC#[C][Au-][c]2n(C)cc[n+]2C)cc1 [1d, [Au(Ld)(IMe)] (R = OMe; IMe = C5H10N2)]" value=4.79

Now look at this entry.
Task: # return recorded pIC50 for input Cn1cc[n+](C)[c]1[Au-][C]#CCOc1c(-c2ccccc2)oc2ccccc2c1=O [1a, [Au(La)(IMe)] (R = H; IMe = C5H10N2)]
Output: 4.36

---

Tested on: S. aureus 13565
protocolText: Disk diffusion test
Assay type: cell-based
setupConditions: complex 5 μg, 24 h incubation; diameter including disk (6 mm)
Reported Inhibition Zone values for the following compounds.
Return type: number; implicit unit mm.

compound="COc1ccc(-c2oc3ccccc3c(=O)c2OCC#[C][Au-][c]2n(C)cc[n+]2C)cc1 [1d, [Au(Ld)(IMe)] (R = OMe; IMe = C5H10N2)]" value=11.86

Task: # return recorded Inhibition Zone for input Cn1cc[n+](C)[c]1[Au-][C]#CCOc1c(-c2ccc(Br)cc2)oc2ccccc2c1=O [1b, [Au(Lb)(IMe)] (R = Br; IMe = C5H10N2)]
Output: 16.58

Task: # return recorded Inhibition Zone for input CC(C)c1cccc(C(C)C)c1-n1cc[n+](-c2c(C(C)C)cccc2C(C)C)[c]1[Au-][C]#CCOc1c(-c2ccc(Br)cc2)oc2ccccc2c1=O [2b, [Au(Lb)(IPr)] (R = Br; IPr = C27H38N2)]
Output: 14.03

Task: # return recorded Inhibition Zone for input CC(C)c1cccc(C(C)C)c1-n1cc[n+](-c2c(C(C)C)cccc2C(C)C)[c]1[Au-][C]#CCOc1c(-c2ccc(Cl)cc2)oc2ccccc2c1=O [2c, [Au(Lc)(IPr)] (R = Cl; IPr = C27H38N2)]
Output: 12.19

---

protocolText: n-Octanol-water distribution coefficient, shake-flask
Type: physicochemical
setupConditions: n-octanol / buffered aqueous solution pH 7.4
attributeMeasured: LogP7.4 (distribution coefficient)

Answered cases to consult:
compound="Cn1cc[n+](C)[c]1[Au-][C]#CCOc1c(-c2ccc(Br)cc2)oc2ccccc2c1=O [1b, [Au(Lb)(IMe)] (R = Br; IMe = C5H10N2)]" value=1.32
compound="CC(C)c1cccc(C(C)C)c1-n1cc[n+](-c2c(C(C)C)cccc2C(C)C)[c]1[Au-][C]#CCOc1c(-c2ccccc2)oc2ccccc2c1=O [2a, [Au(La)(IPr)] (R = H; IPr = C27H38N2)]" value=0.42

Task: # return recorded LogP7.4 (distribution coefficient) for input CC(=O)OC[C@H]1O[C@@H]([S-])[C@H](OC(C)=O)[C@@H](OC(C)=O)[C@@H]1OC(C)=O.CCP(CC)CC.[Au+] [Auranofin, reference compound]
Output: −2.53

Task: # return recorded LogP7.4 (distribution coefficient) for input COc1ccc(-c2oc3ccccc3c(=O)c2OCC#[C][Au-][c]2n(-c3c(C(C)C)cccc3C(C)C)cc[n+]2-c2c(C(C)C)cccc2C(C)C)cc1 [2d, [Au(Ld)(IPr)] (R = OMe; IPr = C27H38N2)]
Output: 3.40
